Here's a batch of compounds along with measured SI (selectivity index) = IC50 against LdCYP5122A1/IC50 against LdCYP51 for LdCYP5122A1 (Leishmania donovani, UniProt A0A3S7X0B6).
# print the numeric value only

[in] For the record CC(=O)N1CCN(c2ccc(OCC3COC(Cn4ccnc4)(c4ccc(Cl)cc4Cl)O3)cc2)CC1 (stereo not shown) , what value of SI (selectivity index) = IC50 against LdCYP5122A1/IC50 against LdCYP51 is listed for LdCYP5122A1 (Leishmania donovani, UniProt A0A3S7X0B6)?
[out] 8.7

[in] For the record Clc1ccc(C(Cn2ccnc2)OCc2ccsc2Cl)c(Cl)c1 (stereo not shown) , what value of SI (selectivity index) = IC50 against LdCYP5122A1/IC50 against LdCYP51 is listed for LdCYP5122A1 (Leishmania donovani, UniProt A0A3S7X0B6)?
[out] 20

[in] For the record `C[C@@H](c1nc(-c2ccc(C#N)cc2)cs1)[C@](O)(Cn1cncn1)c1cc(F)ccc1F` , what value of SI (selectivity index) = IC50 against LdCYP5122A1/IC50 against LdCYP51 is listed for LdCYP5122A1 (Leishmania donovani, UniProt A0A3S7X0B6)?
[out] 60

[in] For the record `C[C@@H](c1nc(-c2ccc(C#N)cc2)cs1)[C@](O)(Cn1cncn1)c1ccc(F)cc1F` , what value of SI (selectivity index) = IC50 against LdCYP5122A1/IC50 against LdCYP51 is listed for LdCYP5122A1 (Leishmania donovani, UniProt A0A3S7X0B6)?
[out] 248

[in] For the record `CCCCCCCCCCCCCCCCOP(=O)([O-])OCC[N+](C)(C)C` , what value of SI (selectivity index) = IC50 against LdCYP5122A1/IC50 against LdCYP51 is listed for LdCYP5122A1 (Leishmania donovani, UniProt A0A3S7X0B6)?
[out] 3.5

[in] For the record CC(C)N1CCN(c2ccc(OCC3COC(Cn4cncn4)(c4ccc(Cl)cc4Cl)O3)cc2)CC1 (stereo not shown) , what value of SI (selectivity index) = IC50 against LdCYP5122A1/IC50 against LdCYP51 is listed for LdCYP5122A1 (Leishmania donovani, UniProt A0A3S7X0B6)?
[out] 140

[in] For the record Clc1ccc(CCC(Cn2ccnc2)Sc2c(Cl)cccc2Cl)cc1 (stereo not shown) , what value of SI (selectivity index) = IC50 against LdCYP5122A1/IC50 against LdCYP51 is listed for LdCYP5122A1 (Leishmania donovani, UniProt A0A3S7X0B6)?
[out] 4.4

[in] For the record `C=C1CCN([C@H](C)[C@](O)(Cn2cncn2)c2ccc(F)cc2F)CC1` , what value of SI (selectivity index) = IC50 against LdCYP5122A1/IC50 against LdCYP51 is listed for LdCYP5122A1 (Leishmania donovani, UniProt A0A3S7X0B6)?
[out] 92

[in] For the record CCC(C)n1ncn(-c2ccc(N3CCN(c4ccc(OCC5COC(Cn6cncn6)(c6ccc(Cl)cc6Cl)O5)cc4)CC3)cc2)c1=O (stereo not shown) , what value of SI (selectivity index) = IC50 against LdCYP5122A1/IC50 against LdCYP51 is listed for LdCYP5122A1 (Leishmania donovani, UniProt A0A3S7X0B6)?
[out] 43

[in] For the record c1ccc(-c2ccc(C(c3ccccc3)n3ccnc3)cc2)cc1 (stereo not shown) , what value of SI (selectivity index) = IC50 against LdCYP5122A1/IC50 against LdCYP51 is listed for LdCYP5122A1 (Leishmania donovani, UniProt A0A3S7X0B6)?
[out] 5.7

[in] For the record Clc1ccc(C(Cn2ccnc2)OCc2ccc(Sc3ccccc3)cc2)c(Cl)c1 (stereo not shown) , what value of SI (selectivity index) = IC50 against LdCYP5122A1/IC50 against LdCYP51 is listed for LdCYP5122A1 (Leishmania donovani, UniProt A0A3S7X0B6)?
[out] 8.0

[in] For the record Clc1ccc(C(Cn2ccnc2)OCc2csc3c(Cl)cccc23)c(Cl)c1 (stereo not shown) , what value of SI (selectivity index) = IC50 against LdCYP5122A1/IC50 against LdCYP51 is listed for LdCYP5122A1 (Leishmania donovani, UniProt A0A3S7X0B6)?
[out] 17
